# target_or_system: T1, 表达于CHOK1细胞表面的人TIGIT (CHOK1/人TIGIT细胞, 吉满生物 GM-C01116) (human, UniProt Q495A1 22-244)
# T1 construct: whole, on cells; Purchased cell line; also called CHOK1/hTIGIT
# T1 sequence (looked up): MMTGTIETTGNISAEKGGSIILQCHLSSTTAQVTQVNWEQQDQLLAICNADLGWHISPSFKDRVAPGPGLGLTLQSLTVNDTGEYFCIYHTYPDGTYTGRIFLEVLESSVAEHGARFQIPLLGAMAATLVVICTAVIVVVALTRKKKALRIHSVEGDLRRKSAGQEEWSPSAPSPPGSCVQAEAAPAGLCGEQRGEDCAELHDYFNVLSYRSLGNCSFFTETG
# experiment_notes: flow cytometry competition, EC50 of % inhibition of Biotinylated-CD155 (0.6μg/ml) binding to CHOK1/hTIGIT cells
Please go through the items and note down their EC50.
Output spec: scalar in µg/mL, unitless text.

// EC50 value for 人源化抗TIGIT抗体A4 (antibody, human IgG1, kappa, V domains shown, Humanized) VH: QLQLVQSGAEVKKPGASVKVSCKASGYSFTDYNMNWVRQAPGQSLEWIGVINPNHGTISYNQKFKGRVTMTRDQSTSTAYMELNSLRSEDTAVYYCANNWDVWYFDVWGQGTLVTVSS VL: DIQMTQSPSSLSASVGDRVTITCRPSENIYSYLAWYQQKPGNSPKLLVYNAKALAEGVPSRFSGSGSGTQFTLTISSLQPEDFATYYCQHHFGAPWTFGGGTKVEIKR : 0.27

// EC50 value for 嵌合抗TIGIT抗体A0 (antibody, human IgG1, kappa, V domains shown, also called B011-A-142E4C5) VH: ELQLQQSGPELVKPGASVKISCKASGYSFTDYNMNWVKQSNGKSLEWIGVINPNHGTISYNQKFKGKATLTVDQSSSTAYMQLNSLTSEDSAVYYCANNWDVWYFDVWGTGTTVTVSS VL: DIQMTQSPASLSASVGETVTITCRPSENIYSYLAWYRQKQGNSPQLLVYNAKALAEGVPSRFSGSGSGTQFSLKINSLQPEDFGSYYCQHHFGAPWTFGGGTKLEIKR : 0.384

// EC50 value for 阳性对照抗体P1 (antibody, human IgG1, kappa, V domains shown, Positive control anti-TIGIT antibody) VH: QVQLQESGPGLVKPSETLSLTCTVSGGSVSSGIYYWSWIRQPPGKGLEWIGYIYYSGSTNYNPSLKSRVTISVDTSKNQFSLKLSSVTAADTAVYYCARDYYVSGNYYNVDYYFFGVDVWGQGTTVTVSS VL: EIVLTQSPATLSLSPGERATLSCRASQSVSSYLAWYQQKPGQAPRLLIYDASNRATGIPARFSGSGSGTDFTLTISSLEPEDFAVYYCQQRSNWPPLFTFGPGTKVDIKR : 0.306
